- System: Escherichia coli QY
- test-details: Antimicrobial susceptibility test of clinical isolated strains; also: key: 'R' stands for drug resistance; 'I' stands for intermediate; 'S' stands for susceptible
- Type: cell-based
- particulars: according to CLSI 2015 guidelines
quantity-kind: Antimicrobial susceptibility test result (category)

See these solved cases before continuing.
compound	measurement-target	result
CS(=O)(=O)c1ccc([C@@H](O)[C@@H](CF)NC(=O)C(Cl)Cl)cc1	Escherichia coli QY	R
CN(C)[C@@H]1C(O)=C(C(N)=O)C(=O)[C@@]2(O)C(O)=C3C(=O)c4c(O)cccc4[C@@](C)(O)[C@H]3C[C@@H]12	Escherichia coli QY	R
CNC(C)C1CCC(N)C(OC2C(N)CC(N)C(OC3OCC(C)(O)C(NC)C3O)C2O)O1 (stereo not shown)	Escherichia coli QY	R
CO/N=C(\C(=O)N[C@@H]1C(=O)N2C(C(=O)O)=C(CSc3nc(=O)c(=O)[nH]n3C)CS[C@H]12)c1csc(N)n1	Escherichia coli QY	R

Provide Antimicrobial susceptibility test result (category) for all items below, preserving their order.
1. CC[C@H]1OC(=O)[C@H](C)[C@@H](O[C@H]2C[C@@](C)(OC)[C@@H](O)[C@H](C)O2)[C@H](C)[C@@H](O[C@@H]2O[C@H](C)C[C@H](N(C)C)[C@H]2O)[C@](C)(O)C[C@@H](C)CN(C)[C@H](C)[C@@H](O)[C@]1(C)O
2. CO[C@H]1/C=C/O[C@@]2(C)Oc3c(C)c(O)c4c(O)c(c(/C=N/N5CCN(C)CC5)c(O)c4c3C2=O)NC(=O)/C(C)=C\C=C\[C@H](C)[C@H](O)[C@@H](C)[C@@H](O)[C@@H](C)[C@H](OC(C)=O)[C@@H]1C
3. Cc1noc(NS(=O)(=O)c2ccc(N)cc2)c1C

Ans.
1: S; 2: S; 3: R

====

- Test system: Escherichia coli S1N1
- test-details: Antimicrobial susceptibility test of clinical isolated strains
- Assay type: cell-based
- particulars: Escherichia coli, S1N1; antibiotic susceptibility, CLSI 2015 guidelines; read-out: MIC
quantity-kind: MIC (µg/mL)
Answers are plain numbers, in µg/mL.

See these solved cases before continuing.
molecular-string	MIC [µg/mL]
CN(C)[C@@H]1C(O)=C(C(N)=O)C(=O)[C@@]2(O)C(O)=C3C(=O)c4c(O)cccc4[C@@](C)(O)[C@H]3C[C@@H]12	32
CS(=O)(=O)c1ccc([C@@H](O)[C@@H](CF)NC(=O)C(Cl)Cl)cc1	2

Now for the molecule whose MIC we want.
Form: molecule = CO/N=C(\C(=O)N[C@@H]1C(=O)N2C(C(=O)O)=C(CSc3nc(=O)c(=O)[nH]n3C)CS[C@H]12)c1csc(N)n1 ; MIC = 16

====

- Test system: Escherichia coli w122
- test-details: Antimicrobial susceptibility test of clinical isolated strains; also: key: 'R' stands for drug resistance; 'I' stands for intermediate; 'S' stands for susceptible
- Type: cell-based
- particulars: according to CLSI 2015 guidelines
quantity-kind: Antimicrobial susceptibility test result (category)

See these solved cases before continuing.
compound	result
CS(=O)(=O)c1ccc([C@@H](O)[C@@H](CF)NC(=O)C(Cl)Cl)cc1	R
CN(C)[C@@H]1C(O)=C(C(N)=O)C(=O)[C@@]2(O)C(O)=C3C(=O)c4c(O)cccc4[C@@](C)(O)[C@H]3C[C@@H]12	R
CNC(C)C1CCC(N)C(OC2C(N)CC(N)C(OC3OCC(C)(O)C(NC)C3O)C2O)O1 (centres unmarked)	S
CC[C@H]1OC(=O)[C@H](C)[C@@H](O[C@H]2C[C@@](C)(OC)[C@@H](O)[C@H](C)O2)[C@H](C)[C@@H](O[C@@H]2O[C@H](C)C[C@H](N(C)C)[C@H]2O)[C@](C)(O)C[C@@H](C)CN(C)[C@H](C)[C@@H](O)[C@]1(C)O	S
CO[C@H]1/C=C/O[C@@]2(C)Oc3c(C)c(O)c4c(O)c(c(/C=N/N5CCN(C)CC5)c(O)c4c3C2=O)NC(=O)/C(C)=C\C=C\[C@H](C)[C@H](O)[C@@H](C)[C@@H](O)[C@@H](C)[C@H](OC(C)=O)[C@@H]1C	S
CO/N=C(\C(=O)N[C@@H]1C(=O)N2C(C(=O)O)=C(CSc3nc(=O)c(=O)[nH]n3C)CS[C@H]12)c1csc(N)n1	R
Cc1noc(NS(=O)(=O)c2ccc(N)cc2)c1C	R

Now for the compound whose Antimicrobial susceptibility test result (category) we want.
Form: compound = COc1cccc(OC)c1C(=O)N[C@@H]1C(=O)N2[C@@H]1SC(C)(C)[C@@H]2C(=O)O ; Antimicrobial susceptibility test result (category) = R

====

- Test system: Escherichia coli w123
- test-details: Antimicrobial susceptibility test of clinical isolated strains; as to Antimicrobial susceptibility test result (category): key: 'R' stands for drug resistance; 'I' stands for intermediate; 'S' stands for susceptible
- Format: cell-based
- particulars: according to CLSI 2015 guidelines
quantity-kind: Antimicrobial susceptibility test result (category)

See these solved cases before continuing.
compound	result
CN(C)[C@@H]1C(O)=C(C(N)=O)C(=O)[C@@]2(O)C(O)=C3C(=O)c4c(O)cccc4[C@@](C)(O)[C@H]3C[C@@H]12 [Tetracycline]	R
COc1cccc(OC)c1C(=O)N[C@@H]1C(=O)N2[C@@H]1SC(C)(C)[C@@H]2C(=O)O [methicillin]	R
CO/N=C(\C(=O)N[C@@H]1C(=O)N2C(C(=O)O)=C(CSc3nc(=O)c(=O)[nH]n3C)CS[C@H]12)c1csc(N)n1 [Ceftriaxone]	R
CO[C@H]1/C=C/O[C@@]2(C)Oc3c(C)c(O)c4c(O)c(c(/C=N/N5CCN(C)CC5)c(O)c4c3C2=O)NC(=O)/C(C)=C\C=C\[C@H](C)[C@H](O)[C@@H](C)[C@@H](O)[C@@H](C)[C@H](OC(C)=O)[C@@H]1C [Rifampicin]	S
Cc1noc(NS(=O)(=O)c2ccc(N)cc2)c1C [Sulfafurazole]	R

Provide Antimicrobial susceptibility test result (category) for all items below, preserving their order.
1. CNC(C)C1CCC(N)C(OC2C(N)CC(N)C(OC3OCC(C)(O)C(NC)C3O)C2O)O1 (centres unmarked) [Gentamicin]
2. CC[C@H]1OC(=O)[C@H](C)[C@@H](O[C@H]2C[C@@](C)(OC)[C@@H](O)[C@H](C)O2)[C@H](C)[C@@H](O[C@@H]2O[C@H](C)C[C@H](N(C)C)[C@H]2O)[C@](C)(O)C[C@@H](C)CN(C)[C@H](C)[C@@H](O)[C@]1(C)O [Azithromycin]

Ans.
["S", "S"]

Form: compound = CS(=O)(=O)c1ccc([C@@H](O)[C@@H](CF)NC(=O)C(Cl)Cl)cc1 [Florfenicol] ; Antimicrobial susceptibility test result (category) = R

====

Would you mind telling me the reported MIC of each entry?
- Test system: Escherichia coli w123
- test-details: Antimicrobial susceptibility test of clinical isolated strains
- Format: cell-based
- particulars: Escherichia coli, W123; antibiotic susceptibility, CLSI 2015 guidelines; read-out: MIC
One number for each entry, in µg/mL.

See these solved cases before continuing.
molecule	measurement-target	MIC / µg/mL
CN(C)[C@@H]1C(O)=C(C(N)=O)C(=O)[C@@]2(O)C(O)=C3C(=O)c4c(O)cccc4[C@@](C)(O)[C@H]3C[C@@H]12	Escherichia coli w123	32
CC[C@H]1OC(=O)[C@H](C)[C@@H](O[C@H]2C[C@@](C)(OC)[C@@H](O)[C@H](C)O2)[C@H](C)[C@@H](O[C@@H]2O[C@H](C)C[C@H](N(C)C)[C@H]2O)[C@](C)(O)C[C@@H](C)CN(C)[C@H](C)[C@@H](O)[C@]1(C)O	Escherichia coli w123	4
COc1cccc(OC)c1C(=O)N[C@@H]1C(=O)N2[C@@H]1SC(C)(C)[C@@H]2C(=O)O	Escherichia coli w123	128
CO/N=C(\C(=O)N[C@@H]1C(=O)N2C(C(=O)O)=C(CSc3nc(=O)c(=O)[nH]n3C)CS[C@H]12)c1csc(N)n1	Escherichia coli w123	32
CO[C@H]1/C=C/O[C@@]2(C)Oc3c(C)c(O)c4c(O)c(c(/C=N/N5CCN(C)CC5)c(O)c4c3C2=O)NC(=O)/C(C)=C\C=C\[C@H](C)[C@H](O)[C@@H](C)[C@@H](O)[C@@H](C)[C@H](OC(C)=O)[C@@H]1C	Escherichia coli w123	4
CNC(C)C1CCC(N)C(OC2C(N)CC(N)C(OC3OCC(C)(O)C(NC)C3O)C2O)O1 (stereo not shown)	Escherichia coli w123	1

Form: molecule = CS(=O)(=O)c1ccc([C@@H](O)[C@@H](CF)NC(=O)C(Cl)Cl)cc1 ; MIC = 128

====

- Tested on: Escherichia coli w136
- test-details: Antimicrobial susceptibility test of clinical isolated strains
- Format: cell-based
- particulars: Escherichia coli, W136; antibiotic susceptibility, CLSI 2015 guidelines; read-out: MIC
MIC under 8 µg/mL gets Fulfilled, anything at or over 8 µg/mL gets Not fulfilled.

Please review the entries below; each comes with its answer.
molecular-string	discrete-label
CO/N=C(\C(=O)N[C@@H]1C(=O)N2C(C(=O)O)=C(CSc3nc(=O)c(=O)[nH]n3C)CS[C@H]12)c1csc(N)n1	Fulfilled
CO[C@H]1/C=C/O[C@@]2(C)Oc3c(C)c(O)c4c(O)c(c(/C=N/N5CCN(C)CC5)c(O)c4c3C2=O)NC(=O)/C(C)=C\C=C\[C@H](C)[C@H](O)[C@@H](C)[C@@H](O)[C@@H](C)[C@H](OC(C)=O)[C@@H]1C	Not fulfilled
CC[C@H]1OC(=O)[C@H](C)[C@@H](O[C@H]2C[C@@](C)(OC)[C@@H](O)[C@H](C)O2)[C@H](C)[C@@H](O[C@@H]2O[C@H](C)C[C@H](N(C)C)[C@H]2O)[C@](C)(O)C[C@@H](C)CN(C)[C@H](C)[C@@H](O)[C@]1(C)O	Fulfilled

Now let's try a different one.
Qu. Take the molecule CS(=O)(=O)c1ccc([C@@H](O)[C@@H](CF)NC(=O)C(Cl)Cl)cc1 and say whether its MIC is less than 8 µg/mL.
Ans. Not fulfilled
